The values you see were collected from the supplement of paper PMC13380429.

Overview of recorded cell viability for various compounds
system: HepG2; experiment: cell viability relative to DMSO; higher = less toxic; conditions: 72 h; 1000 nM
Numbers only; they are read as %.

See these solved cases before continuing.
NC(=O)c1nc(Nc2ccccc2)sc1NC(=O)C1CCCCC1; 104
O=C(O)C1=CCNCC1; 96.1
CCN(CC)CCOCCOC(=O)C(CC)(CC)c1ccccc1; 95.6
CN(c1ncccc1CNc1nc(Nc2ccc3c(c2)CC(=O)N3)ncc1C(F)(F)F)S(C)(=O)=O; 74.1
CC1/C=C/C=C/C=C/C=C/C=C/C=C/C=C/C(OC2O[C@H](C)[C@@H](O)[C@H](N)[C@@H]2O)CC(O)C(C(=O)O)C(O)CC(=O)CC(O)CC(O)CC(O)CC(=O)CCCC(=O)CC(=O)OC1C(C)CC(C)C(O)CC(=O)c1ccc(N)cc1 (stereo partly drawn); 103
O=C(c1c(O)nc2cc(Cl)ccc2c1O)C1CC1; 102
O=c1c(O)c(-c2cc(O)c(O)c(O)c2)oc2cc(O)cc(O)c12; 94.4

Could you now look at the following compound, please?
Task: Name the recorded cell viability of the item COc1ccc(-n2nc(C(F)(F)F)cc2-c2ccc(Cl)cc2)cc1 in your answer.
Output: 91

---

test system: Vero E6; experiment: cell viability relative to DMSO; higher = less toxic; conditions: 72 h; 10 nM
# Lookup of reported cell viability keyed by entry
Reply with just the number (in %).

Cc1ccc(S(=O)(=O)NCc2ccccc2)cc1; 101
CCNC1=Nc2ccc(Cl)cc2C(C)(c2ccccc2)O1 (stereo unspecified); 98.1

Could you now consider this next compound?
Task: Identify the reported cell viability for the following entry. Cc1ccc(S(=O)(=O)NC(=O)NN2CCCCCC2)cc1 [tolazamide]
Output: 86.3

---

Listed next: entries and their corresponding drug sensitivity score.
tested on: Calu-3; experiment: drug sensitivity score (DSS) for viability; higher = more toxic; extreme values may be limits of the assay; conditions: 72 h
Just the number, please, no unit after it.

In the examples that follow, each entry is paired with its recorded drug sensitivity score.
CCCCC/C=C\C=C\CCCCCCCCC(=O)O [trans-10,cis-12-conjugated-linoleic-acid]; 0
OC[C@H]1O[C@@H](OCCc2ccc(O)cc2)[C@H](O)[C@@H](O)[C@@H]1O [salidroside]; 0
Clc1cccc(Nc2nnc(-c3ccccc3)c3ccccc23)c1; 0
O=C(O)Cc1cccc(OCCCN(Cc2cccc(C(F)(F)F)c2Cl)CC(c2ccccc2)c2ccccc2)c1; 0
CCCc1c(-c2ccc(O)cc2)nn(-c2ccc(O)cc2)c1-c1ccc(O)cc1; 0

Task: # return recorded drug sensitivity score for input CCOCc1cc(OC)c(-c2ccc(C[C@H](NC(=O)c3c(F)cccc3F)C(=O)O)cc2)c(OC)c1
Output: 0

Task: Give the measured drug sensitivity score for CCC[C@H](Nc1nc(-c2ccc(NC(=O)NCC)c(OC)c2)ncc1C)c1cccnc1
Output: 17.4

Task: For the molecule Nc1ccccc1S(N)(=O)=O [2-aminobenzenesulfonamide] , give its reported drug sensitivity score.
Output: 0.4

Task: Entry O=C(c1c(O)nc2cc(Cl)ccc2c1O)C1CC1 needs its drug sensitivity score filled in; supply it.
Output: 0

Task: Fill in reported drug sensitivity score for this entry: NC(CO)(CO)CO
Output: 0

Task: Give drug sensitivity score for the following molecule: On1ncc(C2CCNCC2)c1-c1cccc(-c2ccccc2)c1
Output: 0

---

tested on: Caco-2; assay: cell viability relative to DMSO; higher = less toxic; settings: 72 h; 10 nM
observable: cell viability (%)
Reply numerically in %, unit not repeated.

C[N+]1(C)CCc2cc3c(cc2[C@H]1[C@@H]1OC(=O)c2c1ccc1c2OCO1)OCO3 [bicuculline-methochloride-(-)]; 118
O=C1N(c2ccccc2)c2ccccc2C1(Cc1ccncc1)Cc1ccncc1; 93.2
Nc1ccn([C@@H]2CS[C@H](CO)O2)c(=O)n1; 100
O=[N+]([O-])c1cccc2cn[nH]c12; 94.4
COc1ccc2c(c1)/C(=C/c1cnc[nH]1)C(=O)N2; 96

Then this compound:
Task: Report cell viability, nothing else, for this compound: O=c1[nH]c(CCl)nc2sc3c(c12)CCCC3
Output: 99.1

---

Listed here are compounds together with their documented cell viability.
test system: Vero E6; assay: cell viability relative to DMSO; higher = less toxic; conditions: 72 h; 1000 nM
Please give a number only; it is taken to be in %.

CNC(=O)ON(C(C)=O)C(=O)NC [caracemide]; 94.7
NS(=O)(=O)c1ccc(-n2nc(C(F)(F)F)cc2-c2ccc(Cl)cc2)cc1; 91.6
OCC[N+]12CN3CN(CN(C3)C1)C2; 96.2
C[C@@H](CN)CC(=O)O; 92.8
O=c1[nH]c(=O)n([C@H]2CCCO2)cc1F (racemic); 102

Task: Please report cell viability for the following compound: CC/C(=C(/c1ccc(OCCN(C)C)cc1)c1cccc(O)c1)c1ccccc1
Output: 95.8

Task: Check the records and state cell viability for C[C@H](NC(=O)CNC(=O)c1cccc(Cl)c1)c1ccccc1
Output: 104

Task: Output cell viability of Nc1ccccc1S(N)(=O)=O [2-aminobenzenesulfonamide]
Output: 98.9

Task: Please give the documented cell viability of Nc1nc(O)c2[nH]nnc2n1
Output: 103

Task: Quickly give me recorded cell viability for CSc1ccccc1OCC(O)CNC(C)C (centres undefined)
Output: 91.8

Task: Identify cell viability associated with the compound Ic1cncc(OC[C@@H]2CCN2)c1
Output: 95.3

Task: Give the measured cell viability for CCNC1=Nc2ccc(Cl)cc2C(C)(c2ccccc2)O1 (centres undefined)
Output: 99.3

Task: For the compound COc1ccc2c(c1)/C(=C/c1cnc[nH]1)C(=O)N2 , give its reported cell viability.
Output: 104

Task: Give the reported cell viability for this compound. COc1cc2c(cc1O)C(CCc1ccc(Cl)cc1)N(C)CC2 (centres undefined)
Output: 102

Task: Please give measured cell viability of the following entry: C#Cc1cnc2nc(O)n(C(CC)CC)c2n1
Output: 96.9

Task: State its cell viability for this compound: Cc1nccc2[nH]c(=O)ccc12
Output: 97.1

Task: Please list cell viability recorded for the compound CN1CCN(CCCCN2C(=O)CN(/N=C/c3ccc(-c4ccc(Cl)cc4)o3)C2=O)CC1 [azimilide]
Output: 96.9

Task: Note down cell viability recorded for CCOc1ccc2ccccc2c1C(=O)N[C@@H]1C(=O)N2[C@@H]1SC(C)(C)[C@@H]2C(=O)O
Output: 104

---

tested on: Caco-2; test: cell viability relative to DMSO; higher = less toxic; conditions: 72 h; 10000 nM
Binarize cell viability at 90%; below is true (1), at or above is false (0).

O=c1ncn2nc(Sc3ccc(F)cc3F)ccc2c1-c1c(Cl)cccc1Cl [VX-745]; true (1)

# ---- query compound ----
Task: Does this compound meet the criterion cell viability < 90%? [N-]=[N+]=N[C@]1(CO)O[C@@H](n2ccc(N)nc2=O)[C@H](O)[C@@H]1O [R-1479]
Output: false (0)

---

tested on: Calu-3; assay: cell viability relative to DMSO; higher = less toxic; conditions: 72 h; 10000 nM
cell viability reference
Record the value in %, omitting the unit from your answer.

O=C(COc1ccc(Cl)cc1)N1CCN(Cc2ccc3c(c2)OCO3)CC1 [fipexide]; 110
Clc1ccc(Cn2c(CN3CCCC3)nc3ccccc32)cc1; 107
Cc1ccc(C(=O)c2ccc(CC(=O)O)n2C)cc1; 96.6

Task: // Input: CN(c1ncccc1CNc1nc(Nc2ccc3c(c2)CC(=O)N3)ncc1C(F)(F)F)S(C)(=O)=O . Output its cell viability only.
Output: 39.5

Task: Answer with the recorded cell viability for the molecule listed here: c1ccc(Cn2c(-c3ccc(OC[C@H](C4CCNCC4)n4c(-c5ccccc5)nc5ccccc54)cc3)nc3ccccc32)cc1
Output: 0.1

Task: Give the reported value of cell viability for this record: CCOc1ccc2nc(SCCN3CCOCC3)[nH]c2c1
Output: 99.8

Task: Let me know recorded cell viability for CC(CNS(=O)(=O)C(C)C)c1ccc(-c2ccc(C#N)cc2)cc1 (centres undefined) , thanks.
Output: 90.4

Task: Complete the entry with cell viability for O=C1CC2(CCCC2)CC(=O)N1CCCCNC[C@H]1COc2ccccc2O1 (racemic)
Output: 85.3

Task: Recall and state the measured cell viability for CC[C@H]1[C@@H](O)[C@@H]2[C@H](CC[C@]3(C)[C@@H]([C@H](C)CCC(=O)O)CC[C@@H]23)[C@@]2(C)CC[C@@H](O)C[C@@H]12 .
Output: 98.2

---

tested on: Caco-2; experiment: cell viability relative to DMSO; higher = less toxic; conditions: 72 h; 100 nM
observable: cell viability (%)
Write it as a number; the unit % goes unstated.

Examples with answers:
Nc1ccn([C@@H]2CS[C@H](CO)O2)c(=O)n1; 89.3
NC(=O)Nc1sc(-c2ccc(F)cc2)cc1C(N)=O; 94.2

Task: Look up Caco-2 data: cell viability of C[C@]12CC[C@@H]3c4ccc(OC(=O)N(CCCl)CCCl)cc4CC[C@H]3[C@@H]1CC[C@@H]2OP(=O)(O)O [estramustine-phosphate] , then report it.
Output: 92.2

Task: State the measured cell viability (Caco-2) of CCN(CC)CCOCCOC(=O)C(CC)(CC)c1ccccc1
Output: 95.9
